target: TARh hairpin containing the HIV-1 Tat-binding UCU bulge; assay: Fluorescence intensity binding to control TARh hairpin; conditions: higher ionic strength; 10 mM HEPES pH 7.5, 200 mM KCl, 2 mM MgCl2; read-out: Kd (TARh), Table S2
I'd be grateful if you could share measured pKd for these entries.
Answers are plain numbers, as −log10 of the molar value.

>>> recorded_measurement("COc1cc(CCN)c(-c2cc(C)c(-c3cc(CCN)c(OC)cc3CCN)cc2C)cc1CCN [Compound 1a]")
4.89

Pending compound:
Fill blank: measured pKd of the compound Cc1cc(-c2cc(CCN)ccc2CCN)c(C)cc1-c1cc(CCN)ccc1CCN [Compound 1d] is ____.
4.49

* * *

Target: RRE subdomain IIB RNA hairpin IIBh
Assay: Fluorescence intensity binding to fluorescein-labelled IIBh hairpin
Set-up: species or system HIV-1
Details: 10-fold molar excess tRNALys; 10 mM sodium phosphate pH 6.6, 0.1 mM EDTA; one-site fit, approximate; read-out: Kd (IIBh+tRNA)
Source text: We next determined whether the terphenyl molecules blocked the interaction between Rev34–50 and subdomain IIB by binding to the RNA and, if so, whether they recognized subdomain IIB in a manner similar to the Rev34–50 α-helix. We first evaluated subdomain IIB association by measuring changes in the fluorescence intensity of a IIBh RNA hairpin construct containing a fluorescein probe attached to unpaired loop IIB residue U23 (Fig. 1D)[21],[22]. […]
reported endpoint: Kd (µM)
One number for each entry, in µM.

>>> recorded_measurement("CCc1cc(-c2cc(CCN)c(OC)cc2CCN)c(CC)cc1-c1cc(CCN)c(OC)cc1CCN [Compound 1b]")
8.7
>>> recorded_measurement("Cc1cc(-c2cc(CCN)ccc2CCN)c(C)cc1-c1cccc(CCN)c1 [Compound 3c]")
5.2

Fill in Kd for each of the 2 compounds listed.
1. Cc1cc(-c2cc(CCN)ccc2CCN)c(C)cc1-c1cc(CCN)ccc1CCN [Compound 1d]
2. COc1cc(CCN)c(-c2cc(C)c(-c3cc(CCN)c(OC)cc3CCN)cc2C)cc1CCN [Compound 1a]

7.8
28

* * *

target: RRE subdomain IIB RNA hairpin IIBh; test: Fluorescence intensity binding to fluorescein-labelled IIBh hairpin; design: species or system HIV-1; conditions: low ionic strength; 10 mM sodium phosphate pH 6.6, 0.1 mM EDTA; two-site model; read-out: Kd,2 second-site equilibrium dissociation constant (IIBh), Table S1
reported endpoint: pKd
One number for each entry, as −log10 of the molar value.

Examples with their reported pKd follow.
>>> recorded_measurement("COc1ccc(-c2cc(C)c(-c3cc(CCN)c(OC)cc3CCN)cc2C)cc1CCN")
4.44
>>> recorded_measurement("CCc1cc(-c2cc(CCCN)c(OC)cc2CCCN)c(CC)cc1-c1cc(CCCN)c(OC)cc1CCCN")
4.34
>>> recorded_measurement("CCOc1cc(CCN)c(-c2cc(C)c(-c3cc(CCN)c(OCC)cc3CCN)cc2C)cc1CCN")
4.13
>>> recorded_measurement("COc1ccc(-c2cc(C)c(-c3cc(CCN)ccc3CCN)cc2C)cc1CCN")
4.66
>>> recorded_measurement("Cc1cc(-c2cc(CCN)ccc2CCN)c(C)cc1-c1ccccc1CCN")
4.48

Next item in the queue.
So what's the measured pKd for this one? COc1cc(CCCN)c(-c2cc(C)c(-c3cc(CCCN)c(OC)cc3CCCN)cc2C)cc1CCCN
4.60

* * *

For each record, write down the corresponding IC50.
molecular target: RRE subdomain IIB-Rev34–50; assay: Fluorescence anisotropy displacement of the IIBh-Rev34–50 interaction; conditions: read-out: IC50, RRE subdomain IIB-Rev34–50, 60 nM IIBh, 10 nM frevp, 100 mM KCl, 20 mM NaCl, 2 mM MgCl2

Observe how each entry below is paired with its result.
>>> recorded_measurement("CCOc1cc(CCN)c(-c2cc(C)c(-c3cc(CCN)c(OCC)cc3CCN)cc2C)cc1CCN")
"> 100 µM"
>>> recorded_measurement("CCc1cc(-c2cc(CCN)c(OC)cc2CCN)c(CC)cc1-c1cc(CCN)c(OC)cc1CCN")
"> 100 µM"
>>> recorded_measurement("CCc1cc(-c2cc(CCCN)c(OC)cc2CCCN)c(CC)cc1-c1cc(CCCN)c(OC)cc1CCCN")
"> 100 µM"

Look up IC50 for the entries below, preserving their order.
1. COc1ccc(-c2cc(C)c(-c3cc(CCN)c(OC)cc3CCN)cc2C)cc1CCN
2. COc1cc(CCN)c(-c2cc(C)c(-c3cc(CCN)c(OC)cc3CCN)cc2C)cc1CCN
3. Cc1cc(-c2cc(CCN)ccc2CCN)c(C)cc1-c1cc(CCN)ccc1CCN

> 100 µM
14 µM
47 µM

* * *

Kindly supply the reported Kd values for the records listed here.
biological target: RRE subdomain IIB RNA hairpin IIBh; experiment: Fluorescence intensity binding to fluorescein-labelled IIBh hairpin; set-up: species or system HIV-1; conditions: 10-fold molar excess DNA duplex LTRd; 10 mM sodium phosphate pH 6.6, 0.1 mM EDTA; one-site fit, approximate; read-out: Kd (IIBh+LTRd)
Give bare numbers, in µM.

>>> recorded_measurement("COc1cc(CCN)c(-c2cc(C)c(-c3cc(CCN)c(OC)cc3CCN)cc2C)cc1CCN [Compound 1a]")
2.4
>>> recorded_measurement("Cc1cc(-c2cc(CCN)ccc2CCN)c(C)cc1-c1cccc(CCN)c1 [Compound 3c]")
8.1
>>> recorded_measurement("Cc1cc(-c2cc(CCN)ccc2CCN)c(C)cc1-c1cc(CCN)ccc1CCN [Compound 1d]")
2.2

Consider now this further molecule.
Requested field: Kd. Item: CCc1cc(-c2cc(CCN)c(OC)cc2CCN)c(CC)cc1-c1cc(CCN)c(OC)cc1CCN [Compound 1b]
6.5

* * *

target: DNA duplex DNAd; experiment: Isothermal titration calorimetry with DNAd duplex; conditions: 25 °C, 10 mM sodium phosphate pH 8.2, 0.1 mM EDTA, read-out: equilibrium dissociation constant, related DNA duplex (ITC)
reported endpoint: Kd (µM)
Give bare numbers, in µM.

I am curious: what Kd value has been reported for COc1cc(CCN)c(-c2cc(C)c(-c3cc(CCN)c(OC)cc3CCN)cc2C)cc1CCN ?
6.3

* * *

target: RRE subdomain IIB RNA hairpin IIBh; experiment: Fluorescence intensity binding to fluorescein-labelled IIBh hairpin; set-up: species or system HIV-1; settings: 10-fold molar excess LTRd; 10 mM HEPES pH 7.5, 200 mM KCl, 2 mM MgCl2; read-out: Kd (IIBh+LTRd), second-site Kd2 (in brackets), Table S2
reported endpoint: pKd
Answers are plain numbers, as −log10 of the molar value.

Quick one: pKd for Cc1cc(-c2cc(CCN)ccc2CCN)c(C)cc1-c1cc(CCN)ccc1CCN [Compound 1d] ?
4.27

* * *

biological target: TARh hairpin containing the HIV-1 Tat-binding UCU bulge; experiment: Fluorescence intensity binding to control TARh hairpin; conditions: 10 mM sodium phosphate pH 6.6, 0.1 mM EDTA; read-out: Kd (TARh), one-site or first-site Kd1
reported endpoint: pKd
Answers are plain numbers, as −log10 of the molar value.

>>> recorded_measurement("COc1cc(CCN)c(-c2cc(C)c(-c3cc(CCN)c(OC)cc3CCN)cc2C)cc1CCN")
4.92
>>> recorded_measurement("Cc1cc(-c2cc(CCN)ccc2CCN)c(C)cc1-c1cccc(CCN)c1")
4.11

Pending compound:
Quick one: pKd for Cc1cc(-c2cc(CCN)ccc2CCN)c(C)cc1-c1cc(CCN)ccc1CCN ?
4.66

* * *

target: RRE subdomain IIB RNA hairpin IIBh; assay: Fluorescence intensity binding to fluorescein-labelled IIBh hairpin; design: species or system HIV-1; details: 10 mM sodium phosphate pH 6.6, 0.1 mM EDTA; two-site model; read-out: Kd (IIBh), second-site Kd2 (in brackets)
Can you tell me pKd for the items I'm about to list?
Numbers only, as −log10 of the molar value.

Please give pKd, item by item, for the list that follows.
1. Cc1cc(-c2cc(CCN)ccc2CCN)c(C)cc1-c1cccc(CCN)c1 [Compound 3c]
2. COc1cc(CCN)c(-c2cc(C)c(-c3cc(CCN)c(OC)cc3CCN)cc2C)cc1CCN [Compound 1a]
3. Cc1cc(-c2cc(CCN)ccc2CCN)c(C)cc1-c1cc(CCN)ccc1CCN [Compound 1d]
4. CCc1cc(-c2cc(CCN)c(OC)cc2CCN)c(CC)cc1-c1cc(CCN)c(OC)cc1CCN [Compound 1b]

1: 4.59; 2: 5.23; 3: 5.46; 4: 4.68

* * *

target: RRE subdomain IIB RNA hairpin IIBh; assay: Fluorescence intensity binding to fluorescein-labelled IIBh hairpin; design: species or system HIV-1; settings: 10-fold molar excess tRNALys; 10 mM HEPES pH 7.5, 200 mM KCl, 2 mM MgCl2; one-site fit, approximate; read-out: Kd (IIBh+tRNA), Table S2
reported endpoint: Kd

For orientation, consider the following solved cases.
>>> recorded_measurement("Cc1cc(-c2cc(CCN)ccc2CCN)c(C)cc1-c1cccc(CCN)c1 [Compound 3c]")
"> 50 µM"
>>> recorded_measurement("CCc1cc(-c2cc(CCN)c(OC)cc2CCN)c(CC)cc1-c1cc(CCN)c(OC)cc1CCN [Compound 1b]")
"> 50 µM"

Consider the record given below.
State the recorded Kd for this entry: Cc1cc(-c2cc(CCN)ccc2CCN)c(C)cc1-c1cc(CCN)ccc1CCN [Compound 1d]
42 µM
